Origin of measurements: ChEMBL document CHEMBL1154083

test: Selectivity ratio of Ki for NET to Ki for 5-HTT

>  <compound>
CCCN1C2CCC1[C@@H](C(=O)OC)[C@@H](c1ccc(SCC)cc1)C2 (stereo not given in full)

>  <modifier>
>

>  <Ratio Ki>
41

$$$$
>  <compound>
C=CCN1C2CCC1[C@@H](C(=O)OC)[C@@H](c1ccc(SC)cc1)C2 (stereo not given in full)

>  <modifier>
=

>  <Ratio Ki>
364

$$$$
>  <compound>
COC(=O)[C@H]1[C@@H](c2ccc(S(C)(=O)=O)cc2)C[C@@H]2CC[C@H]1N2C

>  <modifier>
>

>  <Ratio Ki>
48

$$$$
>  <compound>
CCCN1C2CCC1[C@@H](C(=O)OC)[C@@H](c1ccc(SC)cc1)C2 (stereo not given in full)

>  <modifier>
=

>  <Ratio Ki>
211

$$$$
>  <compound>
C=CCN1C2CCC1[C@@H](C(=O)OC)[C@@H](c1ccc(SCC)cc1)C2 (stereo not given in full)

>  <modifier>
>

>  <Ratio Ki>
43

$$$$

---

Catalogue of compounds with associated IC50
target: Sodium-dependent dopamine transporter (Homo sapiens); assay: Displacement of [3H]WIN-35428 from DAT
Sequence (Q01959 whole entry): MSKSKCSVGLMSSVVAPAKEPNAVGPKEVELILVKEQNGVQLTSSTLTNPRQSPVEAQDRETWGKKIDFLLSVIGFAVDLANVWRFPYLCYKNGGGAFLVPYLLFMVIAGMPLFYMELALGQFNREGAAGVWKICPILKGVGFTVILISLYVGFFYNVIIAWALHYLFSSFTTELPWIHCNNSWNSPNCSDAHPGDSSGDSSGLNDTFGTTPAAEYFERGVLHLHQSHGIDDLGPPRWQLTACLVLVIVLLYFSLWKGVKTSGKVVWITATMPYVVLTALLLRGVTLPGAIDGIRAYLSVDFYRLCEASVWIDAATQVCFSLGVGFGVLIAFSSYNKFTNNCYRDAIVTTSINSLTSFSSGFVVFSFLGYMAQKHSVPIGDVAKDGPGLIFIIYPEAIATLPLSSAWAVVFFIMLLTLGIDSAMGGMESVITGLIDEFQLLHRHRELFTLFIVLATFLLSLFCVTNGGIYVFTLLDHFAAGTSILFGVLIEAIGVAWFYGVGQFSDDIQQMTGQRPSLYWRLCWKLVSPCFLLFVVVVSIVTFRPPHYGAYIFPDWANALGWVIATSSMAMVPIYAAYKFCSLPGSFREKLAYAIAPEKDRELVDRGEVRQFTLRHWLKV

>  <compound>
COC(=O)[C@H]1[C@@H](c2ccc(SC(F)(F)F)cc2)C[C@@H]2CC[C@H]1N2C

>  <IC50, nM>
200

$$$$
>  <compound>
COC(=O)[C@H]1[C@@H](c2ccc(SC)cc2)C[C@@H]2CC[C@H]1N2C

>  <IC50, nM>
9

$$$$
>  <compound>
COC(=O)[C@H]1[C@@H](c2ccc(SC)c(Br)c2)C[C@@H]2CC[C@H]1N2C

>  <IC50, nM>
10.1

$$$$
>  <compound>
CCSc1ccc([C@H]2CC3CCC(N3)[C@H]2C(=O)OC)cc1 (stereo partly specified)

>  <IC50, nM>
177

$$$$
>  <compound>
C=CCN1C2CCC1[C@@H](C(=O)OC)[C@@H](c1ccc(SCC)cc1)C2 (stereo partly specified)

>  <IC50, nM>
1100

$$$$
>  <compound>
CCCN1C2CCC1[C@@H](C(=O)OC)[C@@H](c1ccc(SC)cc1)C2 (stereo partly specified)

>  <IC50, nM>
74

$$$$

---

What follows is a collection of log10(Ki) values obtained with Sodium-dependent serotonin transporter (Homo sapiens).
Sequence (P31645 whole entry): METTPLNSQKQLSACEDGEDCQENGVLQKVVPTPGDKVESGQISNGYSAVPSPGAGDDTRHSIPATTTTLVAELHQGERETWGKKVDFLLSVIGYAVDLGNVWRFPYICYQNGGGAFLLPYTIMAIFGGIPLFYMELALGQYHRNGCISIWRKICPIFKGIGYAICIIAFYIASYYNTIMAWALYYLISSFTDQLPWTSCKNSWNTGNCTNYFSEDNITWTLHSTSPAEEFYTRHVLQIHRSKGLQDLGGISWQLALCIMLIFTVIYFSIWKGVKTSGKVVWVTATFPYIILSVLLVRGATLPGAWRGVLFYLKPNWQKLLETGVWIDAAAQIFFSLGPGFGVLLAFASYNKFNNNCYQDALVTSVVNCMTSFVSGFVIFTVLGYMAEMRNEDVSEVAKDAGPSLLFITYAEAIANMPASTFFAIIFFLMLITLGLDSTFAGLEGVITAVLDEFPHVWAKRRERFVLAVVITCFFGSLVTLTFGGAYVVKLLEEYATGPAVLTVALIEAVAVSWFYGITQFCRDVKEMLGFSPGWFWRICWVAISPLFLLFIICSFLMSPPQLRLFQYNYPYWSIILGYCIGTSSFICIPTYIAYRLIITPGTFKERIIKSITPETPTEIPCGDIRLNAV
propertyName: log10(Ki) (log10 of the value in nM)

>  <molecule>
CCSc1ccc([C@H]2CC3CCC([C@H]2C(=O)OC)N3CCCF)cc1 (some centres not stated)

>  <studyTarget>
Sodium-dependent serotonin transporter (Homo sapiens)

>  <quantitativeReadout>
1.43

$$$$
>  <molecule>
COC(=O)[C@H]1[C@@H](c2ccc(SC)c(Br)c2)C[C@@H]2CC[C@H]1N2C

>  <studyTarget>
Sodium-dependent serotonin transporter (Homo sapiens)

>  <quantitativeReadout>
-0.22

$$$$
>  <molecule>
C=CCN1C2CCC1[C@@H](C(=O)OC)[C@@H](c1ccc(SCC)cc1)C2 (some centres not stated)

>  <studyTarget>
Sodium-dependent serotonin transporter (Homo sapiens)

>  <quantitativeReadout>
1.67

$$$$
>  <molecule>
COC(=O)[C@H]1[C@@H](c2ccc(SC(C)C)cc2)C[C@@H]2CC[C@H]1N2C

>  <studyTarget>
Sodium-dependent serotonin transporter (Homo sapiens)

>  <quantitativeReadout>
1.36

$$$$
>  <molecule>
COC(=O)[C@H]1[C@@H](c2ccc(S(C)(=O)=O)cc2)C[C@@H]2CC[C@H]1N2C

>  <studyTarget>
Sodium-dependent serotonin transporter (Homo sapiens)

>  <quantitativeReadout>
2.32

$$$$
>  <molecule>
CCCN1C2CCC1[C@@H](C(=O)OC)[C@@H](c1ccc(SC)cc1)C2 (some centres not stated)

>  <studyTarget>
Sodium-dependent serotonin transporter (Homo sapiens)

>  <quantitativeReadout>
0.76

$$$$
>  <molecule>
COC(=O)[C@H]1[C@@H](c2ccc(SC(F)(F)F)cc2)C[C@@H]2CC[C@H]1N2C

>  <studyTarget>
Sodium-dependent serotonin transporter (Homo sapiens)

>  <quantitativeReadout>
0.90

$$$$
